testMethodNotes: soluble fraction after stress (log2 fold change); higher = more stays soluble; pooled small domains, quantitative proteomics
statedConditions: stress: pH 4
So basically, the class depends on measured soluble fraction (log2), and the ranges are group 1: < -0.2; group 2: ≥ -0.2 and < -0.02; group 3: ≥ -0.02

primarysequence=HMPRIYSITINPEKIRTVIGPGGKVIKDITAKTGTKIEIDDSGKVDIFSPDEEHARMAVEIINTLTEE group="group 1"
primarysequence=HMTYNIPEHYQTIDVKEYVRKLVSDGDSDQIGRVEMELTEFETRNLFPVLKVLIYIIDTMRK group="group 1"
primarysequence=HMHKIRRQTKITKSLLDQIEGIGSSRKKALLNHFGSAKAVGEAGETDLGTVKGISNSLAKKIYDFFHAT group="group 3"
primarysequence=HMEPEDVIAMERYLASGAIKGIGVTLAGRIIKKFQKETFHIIEEEPERLSEVKGISEKLAREIYQQFTQK group="group 2"
primarysequence=HMGVGVTAPLAGNIFKIVKQPGDVVASGDVVLILEAMKMETEIRAAAGGTVKQVLVREGDAVDAGHTLMTL group="group 1"
primarysequence=HMQNEQIAFSKFLQEVDSGRVVQVEIQGNNIKGILSDGSKFYTYSPNYPELVGKLSEKGVNIVASPVE group="group 3"
primarysequence=HMGTRIQAVMEDIQSRIAARTYLPGTRLPSVRAQAQAMQVSVSTVVEAYERLAAEGVIASRPGSGFYVAGP group="group 3"
primarysequence=HMRTGLSGMIGEIGIVKQAIDPEGKVAVHGELWKARADVALAAGQTVRVVAVDGLTMTVEATDSK group="group 3"
primarysequence=HMTLTEQQITDNYKELRKIINDTFSGLRLDKLNHMYDDLEDRMVVAPASSVEHYHNSKVGGYVEHILHVI group="group 2"
primarysequence=HMSLSASELDQLRMMTKVSHMYHTRGMVQIDIARSLGLSQARVSRLLSAAEDANIVRTVVVA group="group 2"
primarysequence=HMEKKKVPEVAGQDEAAARNVMTNSGFVVDVEQKEDDNVPAGKVITTAPAGGVEVVEGTKIILYVSKGSN group="group 3"
primarysequence=HMELPADLATVLSVDDIRAIALAEVPGSTITGVELEREEGVLVYKVKFNDGSYKLYDANTGELV group="group 1"
primarysequence=HMDDDAELLLKKLSAAGGELPFHDRSEPAEIEAAFGLSKSAFKRALGKLLKAGKVVKTQQGIQLK group="group 3"
primarysequence=HMSMTVHGALRLLQLPTIADRPYTLKEIREAYREQAQNHHPDAGGSADAMRRLNEAYQFLKERYRQA group="group 2"
primarysequence=HMDSLARKTVNGAEFYIYPVESAEGFYSLRRKFGVSQEEVIKYNPSAQNGLKSGQVLLIPVT group="group 3"
primarysequence=HMSWEQELIEKANEIIDLYPEKRSALGPLLYLAQERDGYISDESIVEISNLVGITEVQVKSVASFYSMYK group="group 1"
primarysequence=HMDEAEELYQAVQALKPKYREVILLHYYQGLRVGEIAAILRAPQSTVSIRLRRARQMLNRMLG group="group 2"
primarysequence=HMLGKNEAKEYKVAYGDIGKMPALIMGLVPLPKPPVVDERLRTLYVTATPEQHREIEAIMNRI group="group 1"
primarysequence=HMKTGNIIAVSLVWKGKYYMIRMFFPSAARPSRADVQTEIEKVYPGSKLSSFSVSDYEPGQPLLQV group="group 2"
primarysequence=HMGADGIPGKNGENGETSYVHFAYATSADGKTGFSTTDTVGKTYMGQYADFEKADSEDPTKYRWGKFQGP group="group 3"
primarysequence=HMQRRHESTPIPADFDYAAVRGLSAEVQQKLERVRPLSIGQAQRIPGMTPAAISLLLVHLERQRRSRV group="group 3"
primarysequence=HMYVVLYPGMARDEAVQVMNELQSRGIDYYEKNGNIYVPKTDENSLRMELANLGYPKTTNNYD group="group 2"
primarysequence=HMFETLVLALAQAWPAERGPVEALQFEGGRLSLQRSGFADEQVEALRQRLSSEGWTLQTEQGRLILNKAG group="group 1"
primarysequence=HMEQIFTELIMDGRVLGENLHRMGVDETWLLRQLRQQGYHSAREVFLAVADANKQVAVYPVS group="group 1"
primarysequence=HMTNPPITTEARNLVVEQLKELNALHPEKARELADSYKKEFNVPKVIGHITEARHGEFLALAISKIDES group="group 1"
primarysequence=HMSLDAAAVASKLIKRLSKSPGRRFALDDLAVDVGLPHEQGRPLVRSALELLVRTQQAVEGPPNVFRLFF group="group 2"
primarysequence=HMTAQASDIEKVLQVIETLGFRGHTLPGENRTAIGVTGNRGSIDPAHFENLPGVADAIRVTKPY group="group 1"
primarysequence=HMGNTTEVLVATQDVKANTKIKESMFTTERVDTASLPDNYLSADSAKDVVGYYTYIGFTKGSVISKSNIAT group="group 3"
primarysequence=HMQETALANFETNEGVQKVKQYVQENVPSLRGSNIVGVWTSYTPEGLTNYRTRFLTQDGQFVEVNLAYQ group="group 1"
primarysequence=HMQMEISQRIKLERQTLKWTQEELADKIFVSKRTISNWETGRTVPDIESVLRLAKVFHVSLEDLLL group="group 2"
primarysequence=HMYSLGPKERSIVSFIANRPGSRSGQIAKSLQIPLPTIKRILNGLVENKVIARHGIGAGTNYVVEDQA group="group 3"
primarysequence=HMGRLNMRRIRDVLRLKFGQGLSERQVAASLGLSKTSVGTYLHRARQAGLTWPLPQGLDDDGLELLLFP group="group 3"
primarysequence=HMNSVSIAPEMLNWVIAHIQMNSLPKQIVEHLTAWISGQKEPTFNQIEKVSRATGIPLGYFFLEQPPKE group="group 1"
